target_desc: caspase-like sites (β1) of proteasome in MM cells (Homo sapiens, UniProt P28072+Q99436)
procedure_details: PROTEASOMEGLO assay of proteasome inhibition in MM cells
Format: cell-based
settings: read-out: IC50 for sites: Casp-L; NCI-H929 cells, 6 hours; >>30 no inhibition at 30 μM, >30 inhibition 10-50% at 30 μM
recorded_endpoint: IC50

Fill in reported IC50 for this entry: `Cc1c(O)cccc1C(=O)N[C@H](C(=O)N[C@@H](CO)C(=O)N[C@H](/C=C/S(C)(=O)=O)Cc1ccc(CN)cc1)C(C)C` > 30 µM

###

target_desc: caspase-like site of 26S proteasomes (Oryctolagus cuniculus)
Sequence (A0A5F9DQW2 1-212): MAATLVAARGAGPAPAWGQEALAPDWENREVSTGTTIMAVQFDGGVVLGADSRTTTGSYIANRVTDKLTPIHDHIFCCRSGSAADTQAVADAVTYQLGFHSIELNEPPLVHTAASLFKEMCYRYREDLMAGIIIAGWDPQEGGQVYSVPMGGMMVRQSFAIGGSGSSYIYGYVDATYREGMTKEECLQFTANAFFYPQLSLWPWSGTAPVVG
procedure_details: Inhibition of purified 26S proteasomes, substrate Ac-nLPnLD-amc
settings: >>30 no inhibition at 30 μM, >30 inhibition between 10 and 50% at 30 μM, read-out: IC50 for sites in 26S proteasomes: Casp-L
# IC50 per record follows
I only need the number, in µM, no unit after it.

molecule | measure_unit | numeric_value
Cc1c(O)cccc1C(=O)N[C@H](C(=O)N[C@@H](CO)C(=O)N[C@H](/C=C/S(C)(=O)=O)Cc1ccc(CN)cc1)C(C)C [Compound 48, HMB-Val-Ser-Phe (4-CH2NH2)-VS] | µM | 11

Would you kindly look at the next entry?
Name the recorded IC50 of Cc1c(O)cccc1C(=O)N[C@H](C(=O)N[C@@H](CO)C(=O)N[C@H](/C=C/S(C)(=O)=O)Cc1ccc(N)cc1)C(C)C [Compound 49, HMB-Val-Ser-Phe(4-NH2)-VS] , assay system caspase-like site of 26S proteasomes (Oryctolagus cuniculus). 23

###

target_desc: chymotrypsin-like activity of yeast 20S proteasome (Saccharomyces cerevisiae, UniProt P23724+P30656)
procedure_details: Yeast 20S core particle activity, substrate Suc-LLVY-amc
settings: read-out: IC50 for yeast 20S proteasome: Chym-L
recorded_endpoint: pIC50
Friendly reminder that pIC50 comes from taking -log10 of the concentration in mol/L.

Kindly indicate its recorded pIC50. Item: `Cc1c(O)cccc1C(=O)N[C@H](C(=O)N[C@@H](CO)C(=O)N[C@H](/C=C/S(C)(=O)=O)Cc1ccc(CN)cc1)C(C)C` 4.71

###

target_desc: caspase-like sites (β1) of proteasome in MM cells (Homo sapiens, UniProt P28072+Q99436)
Sequence (P28072 35-239): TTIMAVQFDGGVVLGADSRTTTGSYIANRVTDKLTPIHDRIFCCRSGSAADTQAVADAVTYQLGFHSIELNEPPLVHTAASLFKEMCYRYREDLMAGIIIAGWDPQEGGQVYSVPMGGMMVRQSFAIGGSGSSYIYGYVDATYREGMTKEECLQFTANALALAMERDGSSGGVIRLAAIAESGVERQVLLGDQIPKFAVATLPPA
Sequence (Q99436 44-277): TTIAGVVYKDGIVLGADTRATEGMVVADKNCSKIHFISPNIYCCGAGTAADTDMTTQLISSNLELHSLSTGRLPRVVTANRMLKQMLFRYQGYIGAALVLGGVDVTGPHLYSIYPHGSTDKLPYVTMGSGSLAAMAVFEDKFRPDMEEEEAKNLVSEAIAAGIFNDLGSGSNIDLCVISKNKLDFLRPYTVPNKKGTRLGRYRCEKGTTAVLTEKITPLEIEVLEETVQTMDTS
procedure_details: PROTEASOMEGLO assay of proteasome inhibition in MM cells
Format: cell-based
settings: NCI-H929 cells, 6 hours; >>30 no inhibition at 30 μM, >30 inhibition 10-50% at 30 μM; read-out: IC50 for sites: Casp-L
recorded_endpoint: IC50

Return IC50 for the following compound: `Cc1c(O)cccc1C(=O)N[C@H](C(=O)N[C@@H](CO)C(=O)N[C@@H](CCCNC(=N)N)C(=O)[C@@]1(C)CO1)C(C)C` > 30 µM

Data credit: patent US8609610B2
